FYI, the data here is from patent US20260042755A1.

Assay Target: GPR6 (Homo sapiens, UniProt P46095)
Construct: expressed in transfected cells; host or cells: CHO cells
Sequence (P46095 whole entry): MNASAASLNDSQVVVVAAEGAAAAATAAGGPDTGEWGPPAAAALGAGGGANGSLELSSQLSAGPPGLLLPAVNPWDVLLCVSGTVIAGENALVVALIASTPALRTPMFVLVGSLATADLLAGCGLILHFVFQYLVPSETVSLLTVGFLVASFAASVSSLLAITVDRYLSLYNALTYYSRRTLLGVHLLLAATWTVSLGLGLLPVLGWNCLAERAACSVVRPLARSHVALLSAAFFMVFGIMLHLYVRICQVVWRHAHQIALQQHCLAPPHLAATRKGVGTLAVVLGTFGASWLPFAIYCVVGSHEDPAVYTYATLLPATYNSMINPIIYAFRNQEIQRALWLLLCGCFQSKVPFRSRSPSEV
Method Description: GPR6 antagonist functional cAMP assay (LANCE Ultra cAMP TR-FRET, CHO cells stably expressing GPR6)
Format: cell-based
Run Conditions: CHO cells stably expressing GPR6, cAMP assay (Example 24)
pIC50: −log10 of the molar value.
Give measured pIC50 for each item. Keep answers brief.

[in] Specify measured pIC50 for COC(CO)c1cc2nc(N3CCC(Oc4ccc(F)cc4F)CC3)c(-c3cnn(C)c3)nc2cn1 (centres unmarked) .
[out] 6.00 to 7.00

[in] Identify the reported pIC50 for the following entry. `COCC(=O)N1CCc2nc(N3CCC(Oc4ccc(F)cc4F)CC3)c(-c3cn[nH]c3)nc2C1`
[out] > 7.00

[in] For the compound Cn1cc(-c2nc3cnccc3nc2N2CCN(CC3CCCCO3)CC2)cn1 (centres unmarked) , report pIC50.
[out] ≤ 4.52

[in] Answer with the recorded pIC50 for the compound listed here: `Fc1ccc(OC2CCN(c3nc4cnccc4nc3-c3cn[nH]c3)CC2)c(F)c1`
[out] 6.00 to 7.00

[in] Recall and state the measured pIC50 for CC(C)(O)[C@@H](O)c1cc2nc(N3CCN(Cc4ccc(F)cc4F)CC3)c(-c3cnn(C(F)F)c3)nc2cn1 (single isomer, unassigned) .
[out] > 7.00

[in] Given the compound CCn1cc(-c2nc3c(nc2N2CCC(Oc4ccc(F)cc4F)CC2)CCN(C(=O)C(O)CO)C3)cn1 (centres unmarked) , write its reported pIC50.
[out] 6.00 to 7.00

[in] Answer with the recorded pIC50 of `CC(=O)N1CCc2nc(N3CCC(Oc4ccc(F)cc4F)CC3)c(-c3cnn4c3CNCC4)nc2C1` only.
[out] 4.52 to 6.00

[in] Output measured pIC50 for this item: `CC(=O)N1CCc2nc(N3CCC(Oc4ccc(F)cc4F)CC3)c(-c3cccc(C(=O)N(C)C)n3)nc2C1`
[out] 4.52 to 6.00
